- assay.system: UniProt:P41143
- Sequence (P41143 whole entry, stated change not applied): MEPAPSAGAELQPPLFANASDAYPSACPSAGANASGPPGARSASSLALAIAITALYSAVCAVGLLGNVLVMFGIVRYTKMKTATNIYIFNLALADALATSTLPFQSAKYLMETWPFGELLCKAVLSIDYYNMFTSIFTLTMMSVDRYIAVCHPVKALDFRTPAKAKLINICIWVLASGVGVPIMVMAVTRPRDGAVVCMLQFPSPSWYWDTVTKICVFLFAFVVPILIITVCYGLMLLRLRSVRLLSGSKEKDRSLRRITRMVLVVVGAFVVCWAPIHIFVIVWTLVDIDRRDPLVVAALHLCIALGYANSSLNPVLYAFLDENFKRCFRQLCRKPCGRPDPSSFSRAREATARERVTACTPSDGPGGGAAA
Non-standard residues stand in square brackets, D forms with d. Residues, ends and D or L forms follow the SMILES beside them. *: point of attachment. X2 = OC[C@H]1O[C@@H](O[C@H]2[C@H](O)[C@@H](O)[C@H](*)O[C@@H]2CO)[C@H](O)[C@@H](O)[C@H]1O; X1 = O[C@@H]1[C@@H](O)[C@H](*)OC[C@H]1O; NMeF = CN[C@@H](Cc1ccccc1)C(=O)O
metric.name: Ki (µM)
Respond with the bare value in µM.

Returns the measured Ki for the input molecule. Input: C[C@@H](NC(=O)[C@@H](N)Cc1ccc(O)cc1)C(=O)NCC(=O)N(C)[C@@H](Cc1ccccc1)C(=O)N[C@@H](CO[C@@H]1O[C@H](CO)[C@@H](O[C@@H]2O[C@H](CO)[C@H](O)[C@H](O)[C@H]2O)[C@H](O)[C@H]1O)C(N)=O [Compound 5] (H-Y[dA]G[NMeF]S(X2)-NH2; N-terminus assumed)
1.6

Try C[C@@H](NC(=O)[C@@H](N)Cc1ccc(O)cc1)C(=O)NCC(=O)N(C)[C@@H](Cc1ccccc1)C(=O)N[C@@H](CO[C@@H]1OC[C@@H](O)[C@H](O)[C@H]1O)C(N)=O [Compound 3] (H-Y[dA]G[NMeF]S(X1)-NH2; N-terminus assumed) next.
0.73

Also check C[C@@H](NC(=O)[C@@H](N)Cc1ccc(O)cc1)C(=O)NCC(=O)N(C)[C@@H](Cc1ccccc1)C(=O)N[C@@H](CO)C(N)=O [Compound 2] (HELM PEPTIDE1{Y.[dA].G.[meF].S.[am]}$$$$V2.0; N-terminus assumed)
0.6

Values from patent US20080019913A1
